Molecular target: Recombinant mouse PD-L1 (Mus musculus, UniProt Q9EP73)
Construct: Fc (Fc chimera); purchased R&D Systems 1019-B7-100
Sequence (Q9EP73 with tags, fused parts or gaps limits assumed): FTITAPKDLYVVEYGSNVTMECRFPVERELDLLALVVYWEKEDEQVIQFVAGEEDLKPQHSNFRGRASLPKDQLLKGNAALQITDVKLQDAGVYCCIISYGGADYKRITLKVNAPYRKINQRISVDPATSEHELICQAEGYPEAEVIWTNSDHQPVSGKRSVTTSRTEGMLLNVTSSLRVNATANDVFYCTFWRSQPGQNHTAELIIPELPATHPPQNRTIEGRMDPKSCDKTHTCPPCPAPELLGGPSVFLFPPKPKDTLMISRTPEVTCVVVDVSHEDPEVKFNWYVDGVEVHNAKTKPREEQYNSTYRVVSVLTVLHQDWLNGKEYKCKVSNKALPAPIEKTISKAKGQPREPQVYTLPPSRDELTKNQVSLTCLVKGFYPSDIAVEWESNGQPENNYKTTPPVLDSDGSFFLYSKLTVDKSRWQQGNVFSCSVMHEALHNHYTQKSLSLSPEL
Test: Rescue of mouse splenocyte proliferation in the presence of recombinant PD-L1 (CFSE proliferation assay)
Type: cell-based
Conditions: 100 nM compound; CFSE-labelled C57 BL6 mouse splenocytes + anti-CD3/CD28 + PD-L1 (100 ng/mL), 72 h; normalised to stimulated splenocytes as 100%; read-out: Percent rescue of splenocyte proliferation (@100 nM)
Method: Example 15: Rescue of Mouse Splenocyte Proliferation in the Presence of Recombinant PD-L1 Recombinant mouse PD-L1 (rm-PDL-1, cat no: 1019-B7-100; R&D Systems) were used as the source of PD-L1. […] CFSE is a dye that passively diffuses into cells and binds to intracellular proteins. […] Cells were harvested and washed thrice with ice cold FACS buffer and % proliferation was analysed by flow cytometry with 488 nm excitation and 521 nm emission filters. […]
measurementType: activation at 0.1 µM (%)

Examples with their reported activation at 0.1 µM follow.
[[record]]
compound = "CCC(C)[C@H](NC(=O)N[C@H](C(=O)O)C(C)O)c1nc([C@@H](N)CO)no1 (stereo partly drawn)"
endpointresult = 50

[[record]]
compound = "CCCNC(=O)CC[C@H](NC(=O)N[C@H](C(=O)O)C(C)O)c1nc([C@@H](N)CO)no1 (stereo partly drawn)"
endpointresult = 119

[[record]]
compound = "NCCCC[C@H](N)c1noc([C@H](CCC(N)=O)NS(=O)(=O)N[C@@H](CO)C(=O)O)n1"
endpointresult = 79


[1] CC(O)[C@H](NC(=O)N[C@@H](Cc1c[nH]c2ccccc12)c1nc([C@@H](N)CO)no1)C(=O)O (stereo partly drawn)
[2] NC(=O)C[C@H](NC(=O)N[C@@H](CC(N)=O)c1nc([C@@H](N)CC(N)=O)no1)C(=O)O
Hi there, can you help? I need to know whether 1 or 2 has lower measured activation at 0.1 µM. # answer = label of selected item
2

[a] CC(O)[C@H](NC(=O)N[C@@H](CCCCN)c1nc([C@@H](N)CO)no1)C(=O)O (stereo partly drawn)
[b] Cn1cc(CN[C@@H](CC(N)=O)c2nc([C@@H](N)CO)no2)cn1
Of a and b , whose reported activation at 0.1 µM is the larger number? Kindly give the label for the entry you pick.
a

[1] N[C@@H](Cc1ccc(O)cc1)c1noc([C@@H]2CCCCN2C(=O)N[C@@H](Cc2ccc(O)cc2)C(=O)O)n1
[2] CCCCCCNC(=O)C[C@H](NC(=O)N[C@H](C(=O)O)C(C)O)c1nc([C@@H](N)CO)no1 (stereo partly drawn)
Lab log: flag the item ( 1 or 2 ) with the smaller activation at 0.1 µM figure. Returns: label corresponding to the selected item.
1
(1: 51%, 2: 75%)
